System name: CD3ε homodimer protein (human, UniProt P07766 23-126, limits assumed)
Sequence (P07766 23-126 limits assumed): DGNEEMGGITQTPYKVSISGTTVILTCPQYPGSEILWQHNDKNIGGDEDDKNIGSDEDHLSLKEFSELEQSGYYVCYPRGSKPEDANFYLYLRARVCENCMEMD
Assay procedure: SPR, immobilized CD3ε homodimer;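 note: biacore T200 surface plasmon resonance at 25 °C, antibody variants flowed as analytes over amine-coupled CD3ε homodimer on a CM4 chip, variant binding amount divided by that of GLS3000 antibody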
Please mark 1 (yes) if the recorded ratio of amounts bound (vs GLS3000) is equal to or greater than 1, and 0 (no) if it falls below.

For orientation, consider the following solved cases.
GLS3000 S25E (antibody, name in Kabat numbering, V domains shown, one-arm format as m2) VH: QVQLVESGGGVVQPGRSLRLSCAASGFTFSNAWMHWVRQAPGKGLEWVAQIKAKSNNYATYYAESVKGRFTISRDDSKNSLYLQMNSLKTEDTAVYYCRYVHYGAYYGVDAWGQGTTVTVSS VL: DIVMTQSPLSLPVTPGEPASISCRESQSLVHSNRNTYLHWYQQKPGQAPRLLIYKVSNRFSGVPDRFSGSGSGTDFTLKISRVEAEDVGVYYCGQGTQVPYTFGQGTKLEIK: 0 (no)
GLS3000 F55G (antibody, name in Kabat numbering, V domains shown, one-arm format as m2) VH: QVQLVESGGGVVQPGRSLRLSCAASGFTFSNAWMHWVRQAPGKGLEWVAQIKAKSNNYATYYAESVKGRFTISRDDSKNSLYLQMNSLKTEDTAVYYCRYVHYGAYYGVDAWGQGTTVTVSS VL: DIVMTQSPLSLPVTPGEPASISCRSSQSLVHSNRNTYLHWYQQKPGQAPRLLIYKVSNRGSGVPDRFSGSGSGTDFTLKISRVEAEDVGVYYCGQGTQVPYTFGQGTKLEIK: 1 (yes)
GLS3000 H34P (antibody, name in Kabat numbering, V domains shown, one-arm format as m2) VH: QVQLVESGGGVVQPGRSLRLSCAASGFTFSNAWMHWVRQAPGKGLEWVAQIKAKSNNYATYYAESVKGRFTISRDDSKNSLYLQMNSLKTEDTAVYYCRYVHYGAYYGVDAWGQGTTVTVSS VL: DIVMTQSPLSLPVTPGEPASISCRSSQSLVHSNRNTYLPWYQQKPGQAPRLLIYKVSNRFSGVPDRFSGSGSGTDFTLKISRVEAEDVGVYYCGQGTQVPYTFGQGTKLEIK: 0 (no)
GLS3000 L27bV (antibody, name in Kabat numbering, V domains shown, one-arm format as m2) VH: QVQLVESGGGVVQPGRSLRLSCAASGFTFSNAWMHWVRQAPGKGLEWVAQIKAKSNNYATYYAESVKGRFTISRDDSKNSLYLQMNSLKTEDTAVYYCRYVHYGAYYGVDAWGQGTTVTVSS VL: DIVMTQSPLSLPVTPGEPASISCRSSQSVVHSNRNTYLHWYQQKPGQAPRLLIYKVSNRFSGVPDRFSGSGSGTDFTLKISRVEAEDVGVYYCGQGTQVPYTFGQGTKLEIK: 1 (yes)

Exam item: Is the recorded value of ratio of amounts bound (vs GLS3000) equal to or greater than 1 for this binder? GLS3000 N28A (antibody, name in Kabat numbering, V domains shown, one-arm format as m2) VH: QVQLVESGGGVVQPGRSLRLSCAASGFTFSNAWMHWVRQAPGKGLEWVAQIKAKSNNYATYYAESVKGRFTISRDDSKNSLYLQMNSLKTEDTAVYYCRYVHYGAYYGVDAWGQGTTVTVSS VL: DIVMTQSPLSLPVTPGEPASISCRSSQSLVHSARNTYLHWYQQKPGQAPRLLIYKVSNRFSGVPDRFSGSGSGTDFTLKISRVEAEDVGVYYCGQGTQVPYTFGQGTKLEIK
Marked response: 0 (no)
